Please go through the items and note down their Max Viability (%).
tested on: PC12 mHTTQ103 cells; test: Rescue of PC12 cells from mHTTQ103-induced cell death; assay type: cell-based, rat; conditions: Tables 5-13; PC12 cells
Answers are plain numbers, in %.

{"compound": "C[C@H](c1ccccc1)n1sc2ccccc2c1=O", "units_text": "%", "number": 42}
{"compound": "O=C(Nc1cccc(F)c1)c1ccccc1S", "units_text": "%", "number": 62}
{"compound": "O=c1c2ccccc2sn1-c1cccc(F)c1", "units_text": "%", "number": 36}

Batch request: Max Viability (%) for each of the following compounds.
1. O=c1[nH]sc2ccccc12 [BIT, benzoisothiazolone, reference compound]
2. O=C(NCc1ccc(Br)cc1)c1ccccc1S

Reply:
1: 66; 2: 42

Query: If you can, please state the reported Max Viability (%) value of O=c1c2ccccc2sn1-c1ccc(Cc2ccccc2)cc1 .
Reply: 37

----------
system: PC12 mHTTQ103 cells; experiment: Rescue of PC12 cells from mHTTQ103-induced cell death; type: cell-based, rat; conditions: Tables 5-13; PC12 cells
Define the label as true (1) when Max Viability (%) is strictly less than 30% and as false (0) in all remaining cases.

{"molecule": "O=c1c2ccccc2sn1-c1ccc(Oc2ccccc2)cc1", "cat": "true (1)"}
{"molecule": "Cc1nnc2s[nH]c(=O)c2c1C", "cat": "false (0)"}
{"molecule": "O=C(c1ccccc1)n1sc2ccccc2c1=O", "cat": "true (1)"}
{"molecule": "O=c1c2cccnc2sn1CO", "cat": "false (0)"}
{"molecule": "Cc1nnc2sn(CN3CCN(Cn4sc5nnc(C)c(C)c5c4=O)CC3)c(=O)c2c1C", "cat": "true (1)"}
{"molecule": "O=c1c2ccccc2sn1CN1CCN(Cc2ccccc2)CC1", "cat": "false (0)"}

Query: Would you kindly verify if Max Viability (%) of Cc1ccc2c(=O)[nH]sc2c1 [LC-60, 6-Methylbenzo[d]isothiazol-3(2H)-one] is strictly less than 30%?
Reply: false (0)

Query: Would you kindly verify if Max Viability (%) of Cc1nnc2sn(CN3CCN(C(=O)C4CC4)CC3)c(=O)c2c1C is strictly less than 30%?
Reply: false (0)

Query: Would you kindly verify if Max Viability (%) of O=c1c2ccccc2sn1CN1CCN(c2ncccn2)CC1 is strictly less than 30%?
Reply: false (0)

----------
biological target: human catalytic PDI A1 a domain (PDIa) (Homo sapiens); construct: made in house; host or cells: Escherichia coli BL21-Gold (DE3); experiment: Isothermal titration calorimetry (ITC) binding to PDIa; conditions: Tables 5-13; NA = not active; read-out: Kd
Sequence (P07237 18-134): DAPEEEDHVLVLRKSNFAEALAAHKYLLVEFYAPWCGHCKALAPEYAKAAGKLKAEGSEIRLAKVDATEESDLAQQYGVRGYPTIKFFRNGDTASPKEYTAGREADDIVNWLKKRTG
readout_name: Kd (µM)
One number for each entry, in µM.

{"test_smiles": "CC(C)(C)OC(=O)NC1CCN(Cn2sc3ccccc3c2=O)CC1", "readout_name": "Kd", "number": 0.094}
{"test_smiles": "Cc1nnc2sn(CN3CCN(C(=O)C4CC4)CC3)c(=O)c2c1C", "readout_name": "Kd", "number": 0.008}
{"test_smiles": "O=c1c2ccccc2sn1CN1CCN(Cc2ccccc2)CC1", "readout_name": "Kd", "number": 0.173}
{"test_smiles": "CC(=O)c1ccc(N2CCN(Cn3sc4ccccc4c3=O)CC2)cc1", "readout_name": "Kd", "number": 0.19}

Batch request: Kd for each of the following compounds.
1. Cc1nnc2s[nH]c(=O)c2c1C
2. C[C@H](c1ccccc1)n1sc2ncccc2c1=O
3. Cc1ccc2c(=O)n(CN3CCN(C(=O)C4CC4)CC3)sc2c1
4. Cc1cc(C)c2c(=O)n(CN3CCN(Cn4sc5nc(C)cc(C)c5c4=O)CC3)sc2n1
5. COCCn1sc2ccccc2c1=O
6. O=c1c2ccccc2sn1CN1CCC(N2CCCCC2)CC1

Reply:
0.018
0.0003
0.662
3.8
0.158
1.21

----------
system: PC12 mHTTQ103 cells; experiment: Rescue of PC12 cells from mHTTQ103-induced cell death; format: cell-based, rat; conditions: Tables 5-13; PC12 cells
readout_name: Max Viability (%)

See these solved cases before continuing.
{"test_smiles": "Cc1ccc2sn(CN3CCN(C(=O)C4CC4)CC3)c(=O)c2c1", "Max Viability (%)": "66%"}
{"test_smiles": "O=c1c2ccccc2sn1CN1CCOCC1", "Max Viability (%)": "69%"}
{"test_smiles": "O=c1c2ccccc2sn1CN1CCSCC1", "Max Viability (%)": "63%"}
{"test_smiles": "O=C(C1CC1)N1CCN(C(=O)n2sc3ccccc3c2=O)CC1", "Max Viability (%)": "34%"}
{"test_smiles": "Cn1sccc1=O", "Max Viability (%)": "15%"}

Query: If you can, please state the reported Max Viability (%) value of Cc1cc(C)c2c(=O)n(CN3CCN(C(=O)C4CC4)CC3)sc2n1 .
Reply: 67%

----------
Please go through the items and note down their EC50.
test system: PC12 mHTTQ103 cells; experiment: Rescue of PC12 cells from mHTTQ103-induced cell death; format: cell-based, rat; conditions: Rattus norvegicus, PC-12; rescue from mHTTQ103 induced cell death; read-out: PC12 cells EC50
In your response, put the unit directly after the numeric value.

{"test_smiles": "O=c1c2cccnc2sn1CN1CCN(Cn2sc3ncccc3c2=O)CC1", "EC50": "2060 nM"}
{"test_smiles": "O=c1c2ccccc2sn1CN1CCN(Cn2sc3ccccc3c2=O)CC1", "EC50": "173 nM"}
{"test_smiles": "O=c1c2cccnc2sn1CO", "EC50": "2480 nM"}
{"test_smiles": "Cc1nc2sn(CN3CCN(Cn4sc5nc(C)c(C)c(C)c5c4=O)CC3)c(=O)c2c(C)c1C", "EC50": "1020 nM"}

Query: If you can, please state the reported EC50 value of O=C(C1CC1)N1CCN(Cn2sc3ncccc3c2=O)CC1 .
Reply: 2830 nM

----------
tested on: PC12 mHTTQ103 cells; experiment: Rescue of PC12 cells from mHTTQ103-induced cell death; assay type: cell-based, rat; details: Tables 5-13; PC12 cells
readout_name: Max Viability (%)
Answers are plain numbers, in %.

See these solved cases before continuing.
{"compound": "O=c1c2ccccc2sn1CN1CCC(CO)CC1", "readout_name": "Max Viability (%)", "number": 60}
{"compound": "CC(C)(C)OC(=O)N1CCC(COc2nsc3ccccc23)CC1", "readout_name": "Max Viability (%)", "number": 30}
{"compound": "O=c1ssc2ccccc12", "readout_name": "Max Viability (%)", "number": 8}
{"compound": "Cc1nc2sn(CN3CCN(C(=O)C4CC4)CC3)c(=O)c2c(C)c1C", "readout_name": "Max Viability (%)", "number": 68}
{"compound": "Cc1cc(C)c2c(=O)[nH]sc2n1", "readout_name": "Max Viability (%)", "number": 65}

Let us examine a further case.
Query: If you can, please state the reported Max Viability (%) value of O=c1[nH]sc2c(F)cccc12 [LC-40, 7-fluorobenzo[d]isothiazol-3(2H)-one] .
Reply: 72

----------
test system: PC12 mHTTQ103 cells; assay: Rescue of PC12 cells from mHTTQ103-induced cell death; type: cell-based, rat; conditions: Tables 5-13; PC12 cells
readout_name: Max Viability (%)
Give bare numbers, in %.

{"compound": "Cc1nc2sn(CN3CCN(Cn4sc5nc(C)c(C)c(C)c5c4=O)CC3)c(=O)c2c(C)c1C [LC-71]", "Max Viability (%)": 41}
{"compound": "O=c1c2ccccc2sn1CN1CCN(Cn2sc3ccccc3c2=O)CC1 [LC-9]", "Max Viability (%)": 66}
{"compound": "Cc1ccc(-n2sc3ccccc3c2=O)c(Br)c1 [LC-36]", "Max Viability (%)": 15}

Batch request: Max Viability (%) for each of the following compounds.
1. CC(C)(C)OC(=O)N1CCN(Cn2sc3ccccc3c2=O)CC1 [LC-10]
2. Cc1cc(C)c2c(=O)n(CN3CCN(Cn4sc5nc(C)cc(C)c5c4=O)CC3)sc2n1 [LC-70]
3. O=C(C1CC1)N1CCN(Cn2sc3ncccc3c2=O)CC1 [LC-46]
4. O=C(C1CC1)N1CCN(Cn2sc3c(F)cccc3c2=O)CC1 [LC-43]

Reply:
1. 72
2. 59
3. 39
4. 56

Batch request: Max Viability (%) for each of the following compounds.
1. Cc1nc2s[nH]c(=O)c2c(C)c1C [LC-51]
2. Cc1ccc(NC(=O)c2ccccc2S)c(Br)c1 [LC-34]
3. C[C@@H](NC(=O)c1ccccc1S)c1ccccc1 [LC-28]
4. O=C(Nc1ccc(Cc2ccccc2)cc1)c1ccccc1S [LC-23]
5. O=c1c2ccccc2sn1CN1CCC(N2CCCCC2)CC1 [LC-64]

Reply:
1. 63
2. 42
3. 56
4. 57
5. 81
